This collection of values is drawn from patent US20120045393A1.

- Target Desc: LHRH binding sites on EFO-27 human ovarian cancer cells (human)
- Method Description: competition with [125I-Tyr8]BRU-2477 on EFO-27 cells
Non-standard residues stand in square brackets, D forms with d. Primed or numbered codes have the meaning given here. DO3A10CM″ = chelating group at the N-terminus (X in the sequence tables); Bpa = N[C@@H](Cc1ccc(C(=O)c2ccccc2)cc1)C(=O)O; DO3A10CM = not defined here; Bzgly = not defined here; Thz′ = not defined here; azaGly = NNC(=O)O; Sar = CNCC(=O)O
Recorded EC50 by entry
Result Type: EC50 (µM)

binder="DO3A10CM-G[Thz′]HWSH[dR]W[Bpa]P[azaGly]-NH2 (reading uncertain) [BRU-2728]" result_type=EC50 val=3.15
binder="DO3A10CM-G[Bzgly]HWSH[dR]W[Bpa]P[azaGly]-NH2 (reading uncertain) [BRU-2792]" result_type=EC50 val=2.27
binder="{DO3A10CM″}-[Sar]HWSH[dS]W[Bpa]P[azaGly]-NH2 [BRU-2761]" result_type=EC50 val=13.6
